Assay: melting temperature; fluorescence melt of hairpins on a sequencing array, two-state fit, raised by 9.35 °C to match UV melts
Details: sodium 0.088 M
Examples of sequences with documented Tm follow.
The reply should contain only the number, in °C.

Request: Entry GAGTGCGGAAACGCGTTC ((..(((....)))..)) has what Tm?
Response: 34.3

Request: Entry GGACAAGAAATTGTCC ((((((....)))))) has what Tm?
Response: 55.3

Request: Entry GATCGGTACTCCGATC ((((((....)))))) has what Tm?
Response: 59.3

Request: Entry GCTAAAGGAAACCTTAGC (((((.(....).))))) has what Tm?
Response: 37.1

Request: Entry GGATTCACGAAAGTGTCC (((..(((....)))))) has what Tm?
Response: 29.8

Request: Entry GCCCTGCGAAAGCGGCGC ((.(.((....)).).)) has what Tm?
Response: 62

Request: Entry GGGTACGAAAGTATTCCC ((((((....)))..))) has what Tm?
Response: 35.5

----------
Examples of sequences with documented Tm follow.
Assay: melting temperature; fluorescence melt of hairpins on a sequencing array, two-state fit, raised by 9.35 °C to match UV melts
Conditions: sodium 0.088 M
The reply should contain only the number, in °C.

Sequence	Quantity	Measured
CGGAGCCGGAAACGGCCG (((..(((....))))))	Tm	46.6
GCTGTGGAAACACAGC ((((((....))))))	Tm	68.7
GATCCTTAATAGGATC ((((((....))))))	Tm	50.1
GGTGCCCGAAAGGGACC (((.(((....))))))	Tm	58.1
CGTACGGAAACGTGTACG ((((((....)))..)))	Tm	41.5

Request: Entry GTCTTGGGAAACTAAGGC (.(((.(....).))).) has what Tm?
Response: 29

Request: Entry CGGGTACGGAAACGTCCG (((..(((....)))))) has what Tm?
Response: 40

Request: Entry GAATTGGGAAACCAGTTC (((.(((....))).))) has what Tm?
Response: 39.4

Request: Entry GTGCGCTCGAAAGAGCAC (((..(((....)))))) has what Tm?
Response: 59.9

Request: Entry GAGCATGGAAACATACTC (((.(((....))).))) has what Tm?
Response: 35.6

Request: Entry GACTAGACGAAAGTCGTC (((..(((....)))))) has what Tm?
Response: 38.9

Request: Entry GAGGCGGGAAACCGCCCC (.(((((....))))).) has what Tm?
Response: 46.4

----------
Assay: folding enthalpy; higher = less favourable; fluorescence melt of hairpins on a sequencing array, two-state fit
Conditions: sodium 0.088 M
Hi, to clarify the labels: Satisfied covers folding enthalpy from -30 kcal/mol upward, Not satisfied covers anything below -30 kcal/mol.

Sequence	Class Name
GCTTGGCGAAAGCGATGC ((.(.((....)).).))	Satisfied
GCATGCGGAAACACACGC ((.((.(....).)).))	Satisfied
GTCCATGGAAACATGGGC (.(((((....))))).)	Not satisfied
GCGGAGCGAAAGCTCGC (((.(((....))))))	Satisfied
GATCTTGTCGAAGATC ((((((....))))))	Satisfied
GCGATGCGAAAGCTTGGC ((.(.((....)).).))	Satisfied
GGATTGGGAAACTAGTCC (((.(.(....).).)))	Satisfied
GATCCGCGGACGGATC ((((((....))))))	Not satisfied

Request: Would you say CGACACCGGAAACGGTCG (((..(((....)))))) shows folding enthalpy at minimum -30 kcal/mol?
Response: Satisfied

Request: Would you say GGGGACGAAAGTCCTCCC ((((((....)))..))) shows folding enthalpy at minimum -30 kcal/mol?
Response: Satisfied

Request: Would you say GCCTGTGGAAACACAAGC ((.((((....)))).)) shows folding enthalpy at minimum -30 kcal/mol?
Response: Satisfied

Request: Would you say GTCGTTGCGAAAGCAGAC (((..(((....)))))) shows folding enthalpy at minimum -30 kcal/mol?
Response: Satisfied

Request: Would you say CGCCTCGGAAACGAAGCG (((.(((....))).))) shows folding enthalpy at minimum -30 kcal/mol?
Response: Satisfied

----------
Experiment: melting temperature; fluorescence melt of hairpins on a sequencing array, two-state fit, raised by 9.35 °C to match UV melts
Conditions: sodium 0.088 M
Quantity: Tm

Sample records with Tm:
Sequence	Measured
GCTCGGCGAAAGCTCAGC (((..((....))..)))	44.7 °C
GCCCTACCGAAAGGTGGC (((..(((....))))))	49 °C

Request: Entry GTGGTAGGAAACTATCAC (((.(((....))).))) has what Tm?
Response: 44.4 °C

Request: Entry GATCCCGGTCGGGATC ((((((....)))))) has what Tm?
Response: 66.1 °C

Request: Entry GCTCGCGGAAACGTGAGC ((((.((....)).)))) has what Tm?
Response: 64.9 °C

Request: Entry AGCAAGAAATTGCT (((((....))))) has what Tm?
Response: 39.3 °C

Request: Entry GCAACCGGAAACGGTTAC (.(((((....))))).) has what Tm?
Response: 41.2 °C

----------
Assay: melting temperature; fluorescence melt of hairpins on a sequencing array, two-state fit, raised by 9.35 °C to match UV melts
Conditions: sodium 0.088 M
Quantity: Tm
Give me the value, and tack the unit on after it.

Sample records with Tm:
Sequence	Tm
GGCTCCGAAAGGAAGCC ((((((....))).)))	64.1 °C
TGGGGGAAACCCCA (((((....)))))	53.5 °C
GTCATGGGAAACCGTGAC ((((.((....)).))))	52.9 °C
GTGTTCGAAAGAATCAC ((((((....))).)))	41.5 °C
CCCTAGAAATAGGG (((((....)))))	38.2 °C

Request: Entry GCGACTGCGAAAGCACGC (((..(((....)))))) has what Tm?
Response: 48.8 °C

Request: Entry GCGTAATTACGC ((((....)))) has what Tm?
Response: 51.7 °C

Request: Entry GGGCGCGAAAGCGGTCCC ((((((....)))..))) has what Tm?
Response: 63.8 °C

Request: Entry GTGATCCGAAAGGACCAC (((.(((....))).))) has what Tm?
Response: 51.8 °C

Request: Entry GTCCAACCGAAAGGTGAC (((..(((....)))))) has what Tm?
Response: 37.2 °C

Request: Entry GACCCACGAAAGTGCGTC (((.(((....))).))) has what Tm?
Response: 46.7 °C

Request: Entry GAGACAGGAAACTGTCTC (((((((....))))))) has what Tm?
Response: 60.1 °C

----------
Test: folding enthalpy; higher = less favourable; fluorescence melt of hairpins on a sequencing array, two-state fit
Details: sodium 0.088 M
Hi, to clarify the labels: Y covers folding enthalpy from -20 kcal/mol upward, N covers anything below -20 kcal/mol.

Past entries and their recorded results:
Sequence	Class Name
GATCCGACCCCGGATC ((((((....))))))	N
GACATGACGAAAGTCGTC (((..(((....))))))	Y
GGGGGTGGAAACGCTCCC (((.(.(....).).)))	N

Could you now look at the following sequence, please?
Request: Would you say TGCTAGAAATAGCA (((((....))))) shows folding enthalpy at minimum -20 kcal/mol?
Response: Y

----------
Test: melting temperature; fluorescence melt of hairpins on a sequencing array, two-state fit, raised by 9.35 °C to match UV melts
Details: sodium 0.088 M
Hi, to clarify the labels: Fulfilled covers Tm from 50 °C upward, Not fulfilled covers anything below 50 °C.

Past entries and their recorded results:
Sequence	Class Name
GTGGGCGAAAGCCTCAC ((((((....))).)))	Fulfilled
GTAGTAGAAATACTAC ((((((....))))))	Not fulfilled
GAATTCGGAAACGAATTC (((((((....)))))))	Fulfilled
CGTACGGAAACGTCACG ((((((....))).)))	Not fulfilled
GGATTACGAAAGTATCC (((.(((....))))))	Not fulfilled
GTAAATGGAAACATTTGC (.(((((....))))).)	Not fulfilled

Request: Would you say GAAGTAGGAAACTGCTTC ((((.((....)).)))) shows Tm at minimum 50 °C?
Response: Not fulfilled

Request: Would you say GGATTAGGAAACCAATCC (((((.(....).))))) shows Tm at minimum 50 °C?
Response: Not fulfilled

Request: Would you say GCACAGCGAAAGCACTGC (((..((....))..))) shows Tm at minimum 50 °C?
Response: Not fulfilled

Request: Would you say GAATCAGGAAACTGGTTC (((.(((....))).))) shows Tm at minimum 50 °C?
Response: Not fulfilled

Request: Would you say GATCTGGTTCCAGATC ((((((....)))))) shows Tm at minimum 50 °C?
Response: Fulfilled

Request: Would you say GATCGAGGAAACTCGACC (.(((((....))))).) shows Tm at minimum 50 °C?
Response: Not fulfilled

Entry source: the array DNA melting data of Ke et al. (doi:10.1101/2024.01.08.574731)
